tested on: UACC-257 melanoma; assay: NCI tumour cell line growth inhibition, 48 h
The label depends only on TGI: YES if it is at least 20 µM, NO if it is smaller.

As a guide, the following entries are already answered.
Cc1cc(C2CC(O)C(CO)O2)c(Br)cc1Br (stereo not drawn) = YES
O=C(Nc1c(Cl)cccc1Cl)Oc1cccc2cccnc12 = NO
Fc1ccc(Nc2ccnc(N3CCN(c4ccnc5cc(Cl)ccc45)CC3)n2)cc1 = NO

Identify whether the reported TGI of the following molecule is 20 µM or greater: Cc1[nH]c(-c2ccccc2)c(O)c1C(=O)OC1CC(C)CCC1C(C)C (stereo not drawn)
YES

###

Kindly supply the reported TGI values for the records listed here.
tested on: KM12 colon; assay: NCI tumour cell line growth inhibition, 48 h
Give bare numbers, in µM.

Worked cases, answers included:
COc1ccc(C2CC(=O)Nc3c2c(C)nn3-c2nc3ccccc3[nH]2)cc1OC (stereo unspecified) = 14.1
Cn1cc(-c2nc(-c3c[nH]c4ccccc34)cs2)c2cccnc21 = 22.8
N#Cc1ccccc1C#C/C=C\C#Cc1ccccn1 = 29.6
COc1cc(N2CCN(C(C)C)CC2)ccc1Nc1nc(Nc2ccc(F)cc2C(N)=O)c2cc[nH]c2n1 = 7.97

Requested read-out: TGI. Entry: CCN1CCC(O)(/C=C/c2ccc(Cl)c(Cl)c2)C(C(=O)/C=C/c2ccc(Cl)c(Cl)c2)C1 (stereo unspecified)
1.88

###

So I've got a bunch of compounds here, and I need their TGI values.
system: ACHN renal; assay: NCI tumour cell line growth inhibition, 48 h
One number for each entry, in µM.

Example entries and their recorded answers appear below.
C=C1C(O)C2OC(=O)C(=C)C2C(OC(=O)/C(C)=C/C)CC2(C)OC2C2OC12 (configuration not stated) = 15.5
COc1ccc2cc(CNCCOCCOCCNCc3ccc4cc(OC)ccc4c3)ccc2c1 = 3.01
Cc1ccc2c(c1)n([O-])c(C(F)(F)F)c(C(=O)c1ccco1)[n+]2=O = 1

// batch mode: one TGI value per listed entry
1. Oc1ccccc1-c1cnnc(-c2ccccc2O)c1
2. COc1cc2ccnc3c2c(c1OC)N(C)C=C3
3. Cc1cccc(N=Nc2ccc(O)c(CN(C)C)c2)c1

1. 83.5
2. 46.4
3. 34.9

Each of the following entries comes with a recorded value; kindly state TGI for each.
1. Nc1ccc(Oc2ccc(C34CC5CC(C3)CC(c3ccc(Oc6ccc(N)c(O)c6)cc3)(C5)C4)cc2)cc1O
2. CN1CCN(CCCn2c3c(sc4ncccc43)c(=O)n3nnc(-c4ccccc4)c23)CC1
3. C=C1CC2(CC(c3ccccc3C)OC(c3ccccc3C)C2)OC1=O (configuration not stated)

1. 3.5
2. 3.04
3. 6.06

###

tested on: CCRF-CEM leukemia; test: NCI tumour cell line growth inhibition, 48 h
quantityMeasured: TGI

Some molecules with known TGI results, for comparison:
Cc1ccc2c(c1)n([O-])c(C(F)(F)F)c(C(=O)c1ccco1)[n+]2=O = 0.859 µM
CC(=O)[C@H]1CC[C@@H]2[C@]1(C)CC=C1[C@]23C=C[C@]2(C[C@@H](O)CC[C@]12C)C(C(=O)O)C3C(=O)O (stereo partly specified) = > 100 µM
CN(CCCNC(=O)c1[nH]nc2c1ccc1ccccc12)CCCNC(=O)c1[nH]nc2c1ccc1ccccc12 = 29.4 µM
CCN1CCC(O)(/C=C/c2ccc(Cl)c(Cl)c2)C(C(=O)/C=C/c2ccc(Cl)c(Cl)c2)C1 (stereo unspecified) = 1.13 µM
COc1ccc(CNCCN2C(=O)c3ccc4c5c(ccc(c35)C2=O)C(=O)N(CCNCc2ccc(OC)c(OC)c2OC)C4=O)c(OC)c1OC = 50 µM
C=C1CC2(CC(c3ccccc3C)OC(c3ccccc3C)C2)OC1=O (stereo unspecified) = 5.75 µM

// each listed molecule needs a value for TGI
1. COc1ccc2cc(CNCCOCCOCCNCc3ccc4cc(OC)ccc4c3)ccc2c1
2. COC(=O)C1=C(C(=O)OC)SC2(S1)C(C(=O)OC)=C(C(=O)OC)Sc1c2ssc1=O
3. CN1CCN(CCCn2c3c(sc4ncccc43)c(=O)n3nnc(-c4ccccc4)c23)CC1
4. O=C(N/N=C/c1ccc(O)cc1)NNCCO
5. c1ccc(C(OCCN2CC3CCC(C2)N3)c2ccccc2)cc1
6. O=c1oc2c(Cl)cc(Cl)cc2cc1-c1cn2c(n1)sc1ccccc12

1.24 µM
0.307 µM
4.08 µM
> 100 µM
> 100 µM
55.6 µM

Please supply TGI for each of the following items, keeping them in order.
1. CCN1CC2(CO)CCC(OC)C34C5CC6C(OC)CC(O)(C5C6OC)C(O)(C(OC)C23)C14 (stereo unspecified)
2. CC1O[C@@H]2CCCCC(=O)[C@]2(C)[C@H]1C (stereo partly specified)
3. CCC(/C(=N/NC(=O)C[N+](C)(C)C)c1ccccc1)C1OC(=O)c2ccccc21 (stereo unspecified)
4. c1ccc(OCC[P+](c2ccccc2)(c2ccccc2)c2ccccc2)cc1

> 375 µM
> 100 µM
> 100 µM
> 41.4 µM

Please go through the list and note TGI for each molecule.
1. Nc1ncnc2c1ncn2Cc1ccc(CCl)cc1
2. CN1C(=O)CC(CC(=O)C2CCCCC2=O)CC1=O (stereo unspecified)
3. CCOC(=O)C(NS(=O)(=O)c1ccccc1)(C(F)(F)F)P(=O)(OCC(C)C)OCC(C)C (stereo unspecified)
4. CCc1c[n+]2c(cc1C1=CN3c4ccccc4[C@]45CCN6C/C(=C/CO)[C@H](C[C@H]64)[C@@H]([C@@H]1O)[C@H]35)-c1[nH]c3ccccc3c1CC2
5. C#Cc1cccc(NC(=O)C2CCCCN2C(=O)CCl)c1 (stereo unspecified)

["> 100 µM", "> 100 µM", "> 100 µM", "> 50 µM", "50.1 µM"]

###

Please provide measured TGI for the entries that follow.
tested on: TK-10 renal; test: NCI tumour cell line growth inhibition, 48 h

Field: example entries. Status: answers known.
Cc1nc2cc3[nH]c4ccccc4c(=O)c3cc2s1 = > 100 µM
CCn1c(C)nc([N+](=O)[O-])c1Sc1ncc[nH]1 = > 100 µM
Cc1c(-c2c(F)cc(C(N)=O)c3[nH]c4c(c23)CC[C@H](C(C)(C)O)C4)cccc1-n1c(=O)c2cccc(F)c2n(C)c1=O = 8.03 µM
CC1O[C@@H]2CCCCC(=O)[C@]2(C)[C@H]1C (stereo partly specified) = > 100 µM

Kindly give each listed record's TGI.
1. COc1ccc(C2[C@@H](Cl)C(=O)N2c2ccc(OC)cc2)cc1 (stereo partly specified)
2. c1ccc(C(OCCN2CC3CCC(C2)N3)c2ccccc2)cc1
3. COc1cc(OC)c(OC)cc1/C=C/c1ccc2ccccc2n1
4. COc1ccc(COc2ccc(Cc3cnc(N)nc3N)cc2OC)cc1
5. O=S(=O)(O)c1ccc([Se][Se]c2ccc(S(=O)(=O)O)cc2)cc1
6. O=C(NC1CCCCC1)N1CCNC1=S

1: > 100 µM; 2: > 100 µM; 3: > 10 µM; 4: > 25 µM; 5: > 100 µM; 6: > 100 µM

###

Hi there, I'd appreciate the recorded TGI for every entry that follows.
test system: SR leukemia; test: NCI tumour cell line growth inhibition, 48 h
Numbers only, in µM.

Before answering, review these 3 worked examples.
Cc1cc(NCCCCCCCCNc2cc(C)nc3cc(N(C)C)ccc23)c2ccc(N(C)C)cc2n1 = 43.9
O=C(NC12CC3CC(CC(C3)C1)C2)n1cnc2c(Cl)ncnc21 = 29
CC(=O)OCc1cc[c]([Hg][Cl])o1 = 12.3

# evaluate next
Would you kindly share the measured TGI for Cc1cc(S(=O)(=O)Nc2nc3ccccc3s2)c(SCc2ccccc2)cc1Cl ?
58

###

system: RXF 393 renal; assay: NCI tumour cell line growth inhibition, 48 h
quantityMeasured: GI50

O=C(Nc1c(Cl)cccc1Cl)Oc1cccc2cccnc12 = 16.7 µM
Cc1c(-c2c(F)cc(C(N)=O)c3[nH]c4c(c23)CC[C@H](C(C)(C)O)C4)cccc1-n1c(=O)c2cccc(F)c2n(C)c1=O = 1.61 µM
Nc1nc(N)c2c(n1)NC(c1ccc(Cl)cc1)C1CCc3ccccc3C1=N2 (stereo unspecified) = 4.68 µM
COc1cc2cc(C(=O)Nc3ccccc3)c(N)nc2cc1OC = 23.7 µM

Your task in this section: give GI50 for each listed record.
1. COc1ccc(N2CCN(c3nc(-c4ccccn4)nc4sc5c(c34)CCCCCC5)CC2)cc1
2. CCCCCCCN(CCCCCCC)C(=N)c1ccc(OC)c2ccccc12
3. Cc1ccccc1N=C(c1ccccc1)C1C(=O)c2ccccc2C1=O
4. O=C(Nc1cccc(Cl)c1)Nc1cc(C(F)(F)F)ccc1Cl
5. Nc1ncnc2c1ncn2Cc1ccc(CCl)cc1
6. Fc1ccc(Nc2ccnc(N3CCN(c4ccnc5cc(Cl)ccc45)CC3)n2)cc1
7. Cc1cc(S(=O)(=O)Nc2nc3ccccc3s2)c(SCc2ccccc2)cc1Cl

["> 100 µM", "1.3 µM", "7.37 µM", "1.12 µM", "20.3 µM", "3.39 µM", "23.8 µM"]
